Target: Dopamine beta hydroxylase (Homo sapiens, UniProt P09172)
Construct: 125 μl of plasma; tissue Instituto Português do Sangue Transplantação; host or cells: human plasma from healthy donors
Sequence (P09172 40-617 limits assumed): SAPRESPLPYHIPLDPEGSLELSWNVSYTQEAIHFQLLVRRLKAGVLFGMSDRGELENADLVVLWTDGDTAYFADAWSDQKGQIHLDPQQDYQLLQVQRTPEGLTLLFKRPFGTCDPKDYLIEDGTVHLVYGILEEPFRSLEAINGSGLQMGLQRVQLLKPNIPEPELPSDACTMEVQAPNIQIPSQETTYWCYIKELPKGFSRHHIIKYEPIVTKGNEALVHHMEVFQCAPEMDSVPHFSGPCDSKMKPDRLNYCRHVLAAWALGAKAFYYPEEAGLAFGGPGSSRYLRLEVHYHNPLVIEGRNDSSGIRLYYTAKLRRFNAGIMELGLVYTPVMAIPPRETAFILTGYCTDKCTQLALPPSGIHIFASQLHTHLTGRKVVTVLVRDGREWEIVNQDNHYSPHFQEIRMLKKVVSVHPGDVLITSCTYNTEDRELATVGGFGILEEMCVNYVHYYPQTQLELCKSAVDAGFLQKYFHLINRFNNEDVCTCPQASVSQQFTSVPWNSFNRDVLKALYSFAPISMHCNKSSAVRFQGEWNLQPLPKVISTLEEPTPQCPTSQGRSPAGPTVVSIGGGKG
Test: Dopamine beta hydroxylase activity in human plasma
Format: biochemical
Conditions: inhibitor 1 μM
observed_property: Plasma (1 μM), activity in % of control

# example entries with known answers
CS(=O)(=O)NC(=O)Cc1[nH]c(=S)n2c1C[C@H](c1c(F)c(F)cc(F)c1F)C2; 8.8 % of control
CS(=O)(=O)NC(=O)Cc1[nH]c(=S)n2c1C[C@@H](c1cc(Br)ccc1F)C2; 16.7 % of control
CN(C)C(=O)CN1CCN(C(=O)Cc2[nH]c(=S)n3c2C[C@H](c2c(F)c(F)cc(F)c2F)C3)CC1; 12.2 % of control
O=C(O)Cc1[nH]c(=S)n2c1[C@@H]1C[C@]1(c1cc(Cl)ccc1F)C2; 1.6 % of control
O=C(Cc1[nH]c(=S)n2c1[C@@H]1C[C@]1(c1cc(Cl)ccc1F)C2)N1CCOCC1; 6.4 % of control

Qu. Which Plasma (1 μM), activity in % of control reading was recorded for the compound Cl.Fc1ccc(Cl)cc1[C@]12C[C@H]1c1c(CCN3CCOCC3)[nH]c(=S)n1C2 ?
Ans. 8.5 % of control

Qu. Another: CCOC(=O)Cc1[nH]c(=S)n2c1C[C@@H](c1c(F)ccc(Br)c1F)C2
Ans. 4.1 % of control

Qu. Another: CS(=O)(=O)NC(=O)Cc1[nH]c(=S)n2c1C[C@@H](c1c(F)ccc(Br)c1F)C2
Ans. 2.6 % of control

---

Catalogue of Plasma (0.1 μM), activity in % of control readings, one per entry.
Target: Dopamine beta hydroxylase (Homo sapiens, UniProt P09172)
Construct: 125 μl of plasma; tissue Instituto Português do Sangue Transplantação; host or cells: human plasma from healthy donors
Assay: Dopamine beta hydroxylase activity in human plasma
Assay type: biochemical
Settings: inhibitor 0.1 μM

# example entries with known answers
O=C(Cc1[nH]c(=S)n2c1C[C@H](c1c(F)ccc(Br)c1F)C2)NC1CCCC1CO (stereo partly shown) [Example 120]; 86.2 % of control
CN(Cc1cnn(C)c1)C(=O)Cc1c2n(c(=S)n1C)C[C@H](c1c(F)ccc(Cl)c1F)C2 [Example 430]; 2.2 % of control
Cn1c(CC(=O)NC2CCOCC2)c2n(c1=S)C[C@H](c1c(F)ccc(Br)c1F)C2 [Example 406]; 2.8 % of control

Qu. Which Plasma (0.1 μM), activity in % of control reading was recorded for the molecule Cn1c(CC(=O)O)c2n(c1=S)C[C@H](c1cc(Cl)ccc1F)C2 [Example 230] ?
Ans. 41.6 % of control

---

Molecular target: DβH (Homo sapiens)
Construct: cellular homogenate (75 μg total protein); host or cells: SK-N-SH cells (homogenate)
Sequence (P09172 whole entry): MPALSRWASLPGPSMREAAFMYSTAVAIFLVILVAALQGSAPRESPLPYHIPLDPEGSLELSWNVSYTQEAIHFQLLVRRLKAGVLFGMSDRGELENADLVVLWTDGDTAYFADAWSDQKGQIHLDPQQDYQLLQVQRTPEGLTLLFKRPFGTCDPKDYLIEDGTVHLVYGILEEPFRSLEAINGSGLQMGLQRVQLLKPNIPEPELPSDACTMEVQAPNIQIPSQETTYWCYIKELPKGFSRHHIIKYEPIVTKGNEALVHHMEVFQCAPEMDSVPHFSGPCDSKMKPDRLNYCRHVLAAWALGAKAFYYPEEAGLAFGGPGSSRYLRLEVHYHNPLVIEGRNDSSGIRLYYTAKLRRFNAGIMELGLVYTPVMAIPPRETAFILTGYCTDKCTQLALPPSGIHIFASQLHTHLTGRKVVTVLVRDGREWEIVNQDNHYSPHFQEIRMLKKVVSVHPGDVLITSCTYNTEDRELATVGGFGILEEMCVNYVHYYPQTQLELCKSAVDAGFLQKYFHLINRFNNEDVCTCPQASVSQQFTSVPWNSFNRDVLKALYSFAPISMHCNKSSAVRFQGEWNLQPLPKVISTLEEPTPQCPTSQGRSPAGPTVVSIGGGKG
Experiment: DβH inhibition assay in SK-N-SH cellular homogenates (tyramine to octopamine)
Format: biochemical
Conditions: SK-N-SH cell homogenate, inhibitor 0.1 μM
observed_property: SKNSH (0.1 μM), activity in % of control

O=C(O)Cc1[nH]c(=S)n2c1[C@@H]1C[C@]1(c1cc(F)cc(Cl)c1)C2; 13.4 % of control
NC(=O)Cc1[nH]c(=S)n2c1[C@@H]1C[C@]1(c1c(F)ccc(Br)c1F)C2; 11.6 % of control
OCCc1[nH]c(=S)n2c1[C@@H]1C[C@]1(c1cc(F)ccc1F)C2; 51.5 % of control
NC(=O)Cc1[nH]c(=S)n2c1[C@@H]1C[C@]1(c1cc(F)cc(Cl)c1)C2; 56.8 % of control
OCc1[nH]c(=S)n2c1[C@@H]1C[C@]1(c1cc(F)cc(F)c1)C2; 57.5 % of control
O=C(O)Cc1[nH]c(=S)n2c1[C@@H]1C[C@]1(c1cc(F)cc(F)c1)C2; 45.6 % of control
NC(=O)Cc1[nH]c(=S)n2c1[C@@H]1C[C@]1(c1cc(Cl)ccc1F)C2; 45.6 % of control

Qu. Which SKNSH (0.1 μM), activity in % of control reading was recorded for the molecule O=C(O)Cc1[nH]c(=S)n2c1[C@@H]1C[C@]1(c1c(F)ccc(Br)c1F)C2 ?
Ans. 0.4 % of control

Origin of the recorded values: patent US11434242B2
